Biological target: CDK9/cyclin T1 (Homo sapiens)
Sequence (O60563 whole entry): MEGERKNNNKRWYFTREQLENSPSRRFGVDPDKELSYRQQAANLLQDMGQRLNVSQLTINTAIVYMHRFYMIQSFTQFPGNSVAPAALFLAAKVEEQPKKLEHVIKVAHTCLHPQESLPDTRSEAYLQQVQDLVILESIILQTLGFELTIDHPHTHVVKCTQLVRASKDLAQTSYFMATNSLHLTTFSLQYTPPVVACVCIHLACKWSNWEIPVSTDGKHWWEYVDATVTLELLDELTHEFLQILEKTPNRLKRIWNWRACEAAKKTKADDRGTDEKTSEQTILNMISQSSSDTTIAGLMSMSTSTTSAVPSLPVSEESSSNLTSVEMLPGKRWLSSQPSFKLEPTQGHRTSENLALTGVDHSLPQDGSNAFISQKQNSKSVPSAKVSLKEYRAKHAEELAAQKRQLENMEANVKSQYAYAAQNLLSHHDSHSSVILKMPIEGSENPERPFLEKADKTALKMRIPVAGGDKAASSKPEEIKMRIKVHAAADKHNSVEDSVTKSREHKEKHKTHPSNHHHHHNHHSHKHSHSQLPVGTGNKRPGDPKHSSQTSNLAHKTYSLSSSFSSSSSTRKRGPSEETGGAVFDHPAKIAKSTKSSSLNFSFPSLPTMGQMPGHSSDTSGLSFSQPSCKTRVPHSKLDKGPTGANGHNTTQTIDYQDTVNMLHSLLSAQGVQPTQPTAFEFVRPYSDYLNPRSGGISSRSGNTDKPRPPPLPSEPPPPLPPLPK
Sequence (P50750 whole entry): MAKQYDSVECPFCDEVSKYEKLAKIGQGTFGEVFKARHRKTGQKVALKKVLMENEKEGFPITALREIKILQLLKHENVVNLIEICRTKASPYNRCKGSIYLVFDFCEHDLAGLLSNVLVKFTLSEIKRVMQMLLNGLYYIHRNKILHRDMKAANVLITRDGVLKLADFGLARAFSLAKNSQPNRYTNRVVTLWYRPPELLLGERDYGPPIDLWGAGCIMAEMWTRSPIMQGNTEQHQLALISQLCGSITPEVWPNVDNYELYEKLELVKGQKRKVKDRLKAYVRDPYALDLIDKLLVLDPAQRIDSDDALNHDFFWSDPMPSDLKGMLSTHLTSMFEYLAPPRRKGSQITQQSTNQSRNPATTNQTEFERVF
Assay: Inhibition of CDK9/cyclin T1 (unknown origin) using YSPTSPSYSPTSPSYSPTSPKKK as substrate after 30 mins in presence of [33P]-gamma-ATP by filter binding assay
pIC50: −log10 of the molar value.
experimental.readout: pIC50

                                smiles_repr                    test_target  assay_value
0  CN1CC[C@H](c2c(O)cc(O)c3c(=O)cc(/C=C/c4ccccc4)oc23)[C@H](O)C1  CDK9/cyclin T1 (Homo sapiens)         7.18

P: CN1CC[C@H](c2c(O)cc(O)c3c(=O)cc(/C=C/c4c5ccccc5cc5ccccc45)oc23)[C@H](O)C1
Q: CN1CC[C@H](c2c(O)cc(O)c3c(=O)cc(/C=C/c4ccccc4Cl)oc23)[C@H](O)C1
Lab note: check whether P or Q has the lower measured pIC50. // output: label of the selected item
P
(P: 6.46, Q: 6.80)

I: CN1CC[C@H](c2c(O)cc(O)c3c(=O)cc(/C=C/c4ccccc4F)oc23)[C@H](O)C1
II: CN1CC[C@H](c2c(O)cc(O)c3c(=O)cc(/C=C/c4cccc(F)c4)oc23)[C@H](O)C1
Identify the entry with the larger pIC50. Options: I and II // output: label of the selected item
II

P: CN1CC[C@H](c2c(O)cc(O)c3c(=O)cc(/C=C/c4cccc(Cl)c4)oc23)[C@H](O)C1
Q: CN1CC[C@H](c2c(O)cc(O)c3c(=O)cc(/C=C/c4c(F)c(F)c(F)c(F)c4F)oc23)[C@H](O)C1
Lab note: check whether P or Q has the lower measured pIC50. // output: label of the selected item
P
(P: 6.55, Q: 7.94)
